study target: Dual specificity tyrosine-phosphorylation-regulated kinase 1A (Homo sapiens, UniProt Q13627)
protocol description: DYRK1A Kinase Assay
Experimental: Each compound was dissolved in DMSO as a 10 mM stock and used to prepare compound source plates. […] This is a non-radioactive assay using fluorescence resonance energy transfer (FRET) between coumarin and fluorescein to detect kinase activity which is represented as a ratio of coumarin emission/fluorescein emission.Briefly, recombinant DYRK1A kinase, ATP and Ser/Thr peptide 18 were prepared in 1× Kinase buffer to final concentrations of 0.25 μg/mL, 15 μM, and 4 μM respectively. […]
parameter: EC50 (nM)

| structure | measurement unit | EC50 |
| --- | --- | --- |
| C[C@]1(O)CC[C@H](Nc2ncc3c(-c4ccn5nccc5c4)c[nH]c3n2)CC1 | nM | 35.2 |

(I) COc1nc(N[C@H](C)C(F)(F)F)c2c(-c3ccc4nc(C)n(CC(F)F)c4n3)c[nH]c2n1
(II) COc1nc(N[C@H]2CC[C@@](C)(O)CC2)nc2[nH]cc(-c3ccc4ncnn4c3)c12
Identify the entry with the smaller EC50: I or II . Reply with the label of the item you choose.
II
(II: 1.4 nM, I: 5440 nM)

The reported numbers originate from BindingDB's records for patent US20250129104.
